Origin of values: patent US20250228958A1

- MEASURED ON: Thrombospondin human platelet (Calbiochem, 605225) (human, UniProt P07996 19-1170)
- Sequence (P07996 19-1170 limits assumed): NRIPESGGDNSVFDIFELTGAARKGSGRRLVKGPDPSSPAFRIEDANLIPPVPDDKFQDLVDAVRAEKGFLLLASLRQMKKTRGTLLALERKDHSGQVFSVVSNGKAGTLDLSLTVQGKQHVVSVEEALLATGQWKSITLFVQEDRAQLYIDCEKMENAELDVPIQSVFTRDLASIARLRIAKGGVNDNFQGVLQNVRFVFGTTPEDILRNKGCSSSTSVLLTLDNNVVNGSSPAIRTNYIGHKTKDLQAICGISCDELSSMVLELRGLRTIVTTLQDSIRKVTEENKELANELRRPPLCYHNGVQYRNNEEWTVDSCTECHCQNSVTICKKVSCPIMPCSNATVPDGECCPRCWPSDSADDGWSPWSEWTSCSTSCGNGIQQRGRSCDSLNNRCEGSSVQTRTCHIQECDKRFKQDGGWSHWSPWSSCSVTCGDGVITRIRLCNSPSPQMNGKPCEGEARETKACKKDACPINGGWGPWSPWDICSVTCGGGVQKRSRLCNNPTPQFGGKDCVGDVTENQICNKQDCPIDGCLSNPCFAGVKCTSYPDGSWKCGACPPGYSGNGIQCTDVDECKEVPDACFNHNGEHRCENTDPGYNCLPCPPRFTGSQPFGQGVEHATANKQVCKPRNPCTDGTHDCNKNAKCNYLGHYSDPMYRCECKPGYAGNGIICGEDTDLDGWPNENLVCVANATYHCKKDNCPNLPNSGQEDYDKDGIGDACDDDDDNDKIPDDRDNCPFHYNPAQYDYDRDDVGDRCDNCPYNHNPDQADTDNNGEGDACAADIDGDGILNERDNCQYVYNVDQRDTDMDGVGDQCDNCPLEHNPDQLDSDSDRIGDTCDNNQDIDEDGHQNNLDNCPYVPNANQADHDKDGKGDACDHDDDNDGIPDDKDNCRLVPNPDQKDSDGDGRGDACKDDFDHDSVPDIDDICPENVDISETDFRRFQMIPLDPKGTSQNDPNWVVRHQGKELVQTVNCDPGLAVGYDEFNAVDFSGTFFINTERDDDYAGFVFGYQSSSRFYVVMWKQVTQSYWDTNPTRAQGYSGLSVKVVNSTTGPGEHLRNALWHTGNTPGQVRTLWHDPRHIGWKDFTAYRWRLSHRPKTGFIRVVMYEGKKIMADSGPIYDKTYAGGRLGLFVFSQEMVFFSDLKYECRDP
- ASSAY DETAILS: cell-based or functional assay
Positions of bridges follow the written chain, without caps; N, C: chain ends. Non-standard residues stand in square brackets, D forms with d. 2Nal = N[C@@H](Cc1ccc2ccccc2c1)C(=O)O; Gly(cPent) = N[C@H](C(=O)O)C1CCCC1; Agb = N=C(N)NCC[C@H](N)C(=O)O; Pen = CC(C)(S)[C@H](N)C(=O)O; hCys = N[C@@H](CCS)C(=O)O
List of IC50 for inhibition of cell adhesion (HUVEC to coated human TSP1) values.
OBSERVABLE: IC50 for inhibition of cell adhesion (HUVEC to coated human TSP1) (nM)

{"columns": ["BINDER", "DISPLAY UNIT", "READING"],
 "data": [
  ["[2Nal]R[hCys]GRDW[hCys]RW[Gly(cPent)]C-NH2 (bridge 3-8, N-12; not fully specified (N-terminus, bridges)) [Peptide-127]", "nM", 11.6],
  ["[2Nal][Agb][hCys]G[Agb]NW[hCys]RW[Gly(cPent)]C-NH2 (disulfide 3-8; bridge N-12; not fully specified (N-terminus, bridges)) [Peptide-2]", "nM", 20],
  ["[2Nal]R[hCys]GRNW[hCys]RWVC-NH2 (disulfide 3-8; bridge N-12; not fully specified (N-terminus, bridges)) [Peptide-12]", "nM", 18.6],
  ["[2Nal]R[hCys]GRDW[Pen]RW[Gly(cPent)]C-NH2 (bridge 3-8, N-12; not fully specified (N-terminus, bridges)) [Peptide-136]", "nM", 162]
]}
